Taken from paper PMC4336329.

target: human ether-à-go-go-related gene (hERG) potassium channel (human); assay: primary screen, population patch clamp on CHO cells stably expressing hERG; higher = less effect of the substance;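 also: peak tail current of the secondary pulse compared with the same well before compound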
Sequence (Q12809 whole entry, looked up): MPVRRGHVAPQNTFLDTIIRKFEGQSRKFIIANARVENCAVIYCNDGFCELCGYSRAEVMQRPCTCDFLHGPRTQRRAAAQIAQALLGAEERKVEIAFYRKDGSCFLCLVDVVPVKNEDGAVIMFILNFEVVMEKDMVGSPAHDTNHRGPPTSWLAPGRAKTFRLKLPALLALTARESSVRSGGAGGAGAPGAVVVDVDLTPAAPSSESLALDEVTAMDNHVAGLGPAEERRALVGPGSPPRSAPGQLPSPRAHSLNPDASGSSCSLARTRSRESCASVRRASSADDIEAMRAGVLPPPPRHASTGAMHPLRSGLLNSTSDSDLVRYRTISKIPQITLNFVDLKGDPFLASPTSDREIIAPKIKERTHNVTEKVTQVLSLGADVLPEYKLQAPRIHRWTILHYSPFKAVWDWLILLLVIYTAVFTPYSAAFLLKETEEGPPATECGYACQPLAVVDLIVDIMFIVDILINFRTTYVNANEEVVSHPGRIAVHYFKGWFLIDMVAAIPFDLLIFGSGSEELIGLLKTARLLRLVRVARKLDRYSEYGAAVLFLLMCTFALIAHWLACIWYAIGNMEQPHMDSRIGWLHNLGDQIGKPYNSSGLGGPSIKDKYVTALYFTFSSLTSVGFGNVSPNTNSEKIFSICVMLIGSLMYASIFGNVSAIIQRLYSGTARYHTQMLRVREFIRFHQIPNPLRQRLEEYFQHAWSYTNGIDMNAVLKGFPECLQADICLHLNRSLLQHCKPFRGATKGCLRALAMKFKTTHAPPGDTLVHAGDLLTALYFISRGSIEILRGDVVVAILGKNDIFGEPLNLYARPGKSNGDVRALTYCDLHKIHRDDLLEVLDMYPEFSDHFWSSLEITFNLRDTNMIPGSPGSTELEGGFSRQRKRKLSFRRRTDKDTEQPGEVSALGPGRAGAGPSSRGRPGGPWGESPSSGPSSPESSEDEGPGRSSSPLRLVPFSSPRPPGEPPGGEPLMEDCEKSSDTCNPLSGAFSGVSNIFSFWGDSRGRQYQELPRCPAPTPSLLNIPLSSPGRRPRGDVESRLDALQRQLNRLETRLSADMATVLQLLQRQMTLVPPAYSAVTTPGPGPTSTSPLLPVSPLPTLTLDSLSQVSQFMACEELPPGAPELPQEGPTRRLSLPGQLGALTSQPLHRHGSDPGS
The whole screen tested about 310,000 compounds, of which about 14,000 (4.5%) showed an effect of 50% or more. The effect is printed as a negative number. Many of the other results were omitted from the sample, so strong results are more common in it than they were.
Each item that follows carries a reported hERG current change (%, negative = inhibition) at 10uM.
Unit % implied. Number only.

molecule	result-value
N#CC1=C(N)N(c2ccccc2Sc2ccccc2)C(=O)C1	3.4
CCOc1ccc(OCC)c(NC(=O)CN(c2ccc(C)cc2)S(=O)(=O)c2c(C)noc2C)c1	3.31
Cn1ncc(Cl)c1C(=O)Nc1cc(C(F)(F)F)ccc1F	29.5

Just so you know, measured hERG current change (%, negative = inhibition) at 10uM for COc1ccc(S(=O)(=O)Nc2ccccc2-c2nc3ccccc3[nH]c2=O)cc1 came out at -9.79

Just so you know, measured hERG current change (%, negative = inhibition) at 10uM for Cn1c(SCc2ccccc2Cl)nc(C(F)(F)F)cc1=O came out at 1.65

Just so you know, measured hERG current change (%, negative = inhibition) at 10uM for Cc1ccc(S(=O)(=O)N2CCN(C(=O)c3ccc(COc4ccccc4)o3)CC2)cc1 came out at -0.773

Just so you know, measured hERG current change (%, negative = inhibition) at 10uM for c1ccc(OCCCc2nc(-c3ccccn3)no2)cc1 came out at -0.0161

Just so you know, measured hERG current change (%, negative = inhibition) at 10uM for Cc1noc(C(=O)Nc2ccc(F)c(Cl)c2)c1Cl came out at 8.86

Just so you know, measured hERG current change (%, negative = inhibition) at 10uM for C#CCOCCOCCOCCNc1nc(N2CCN(C(=O)[C@H](CCCCN)n3cc([C@@H](N)CC(C)C)nn3)CC2)nc(N2CCN(C(=O)[C@H](CCCCN)n3cc([C@@H](N)CC(C)C)nn3)CC2)n1.Cl came out at 4.98
